Molecular target: hSERT-A169D (Homo sapiens, UniProt P31645, A169D)
Sequence (P31645 whole entry A169D): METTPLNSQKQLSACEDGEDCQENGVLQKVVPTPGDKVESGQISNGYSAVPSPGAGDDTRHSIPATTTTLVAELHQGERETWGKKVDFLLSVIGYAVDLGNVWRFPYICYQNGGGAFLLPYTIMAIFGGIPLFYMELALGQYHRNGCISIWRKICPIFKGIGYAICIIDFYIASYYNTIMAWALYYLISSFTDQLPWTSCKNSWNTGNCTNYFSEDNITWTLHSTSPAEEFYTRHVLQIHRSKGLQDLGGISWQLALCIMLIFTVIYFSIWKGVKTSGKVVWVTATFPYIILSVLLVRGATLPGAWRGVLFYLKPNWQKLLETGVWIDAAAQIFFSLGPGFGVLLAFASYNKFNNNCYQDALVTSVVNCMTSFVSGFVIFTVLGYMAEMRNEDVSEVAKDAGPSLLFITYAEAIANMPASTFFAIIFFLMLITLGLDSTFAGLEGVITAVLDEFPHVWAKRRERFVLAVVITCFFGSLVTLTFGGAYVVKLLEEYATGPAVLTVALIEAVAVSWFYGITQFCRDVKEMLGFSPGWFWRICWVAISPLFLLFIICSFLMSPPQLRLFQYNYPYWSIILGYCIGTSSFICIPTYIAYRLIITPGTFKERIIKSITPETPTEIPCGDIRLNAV
Format: binding
Conditions: read-out: Ki (nM) RTI-55 Binding A169D; hSERT A169D
Assay metric: Ki (nM)
Hi! Could you send only the number? It should be in nM, unit omitted.

What does the record list as Ki for Brc1ccc([C@@H]2CCNC[C@H]2COc2ccc3c(c2)OCO3)cc1 ?
1.72

---

Target: hSERT (Homo sapiens, UniProt P31645)
Sequence (P31645 whole entry): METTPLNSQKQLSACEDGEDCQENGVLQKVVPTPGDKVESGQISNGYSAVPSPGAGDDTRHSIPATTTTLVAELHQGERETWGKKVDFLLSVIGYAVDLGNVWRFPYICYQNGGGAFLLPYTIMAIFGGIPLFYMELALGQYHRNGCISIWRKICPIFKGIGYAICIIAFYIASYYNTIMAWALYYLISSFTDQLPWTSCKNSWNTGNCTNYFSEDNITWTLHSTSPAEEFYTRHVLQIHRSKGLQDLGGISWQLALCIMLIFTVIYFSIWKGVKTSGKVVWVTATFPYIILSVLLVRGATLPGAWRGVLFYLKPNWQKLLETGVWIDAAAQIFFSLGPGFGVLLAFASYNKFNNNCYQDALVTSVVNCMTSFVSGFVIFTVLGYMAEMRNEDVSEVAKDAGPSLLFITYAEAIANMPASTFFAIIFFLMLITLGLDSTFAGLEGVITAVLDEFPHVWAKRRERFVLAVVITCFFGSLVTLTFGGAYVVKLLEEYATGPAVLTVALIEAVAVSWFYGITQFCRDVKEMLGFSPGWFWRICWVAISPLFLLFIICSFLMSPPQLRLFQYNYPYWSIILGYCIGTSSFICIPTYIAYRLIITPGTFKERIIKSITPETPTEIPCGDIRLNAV
Assay metric: Ki (nM)
Hi! Could you send only the number? It should be in nM, unit omitted.

Notebook entry, hSERT (Homo sapiens, UniProt P31645) assay: Ki of Brc1ccc([C@@H]2CCNC[C@H]2COc2ccc3c(c2)OCO3)cc1 = ?
0.32

---

Biological target: hSERT-A169D (Homo sapiens, UniProt P31645, A169D)
Format: cell-based
Details: read-out: Ki (nM) 5-HT Transport A169D; hSERT A169D
Assay metric: Ki (nM)
Hi! Could you send only the number? It should be in nM, unit omitted.

What does the record list as Ki for Brc1ccc([C@@H]2CCNC[C@H]2COc2ccc3c(c2)OCO3)cc1 ?
6.37

---

As a worked illustration, we turn to Ki data collected for rat SERT (rSERT) (Rattus norvegicus, UniProt P31652).
Hi! Could you send only the number? It should be in nM, unit omitted.

| Compound | Units text | Ki |
| --- | --- | --- |
| Brc1ccc([C@@H]2CCNC[C@H]2COc2ccc3c(c2)OCO3)cc1 [compound 13, 4-bromoparoxetine] | nM | 4.9 |

What does the record list as Ki for Fc1ccc(C2CCN(Cc3ccc(Br)cc3)CC2COc2ccc3c(c2)OCO3)cc1 (stereo not shown) [compound 3] ?
204

What does the record list as Ki for CN1CC[C@@H](c2ccc(F)cc2)[C@H](COc2ccc3c(c2)OCO3)C1 [compound 14] ?
2.95

What does the record list as Ki for CCCCCCN1CCC(c2ccc(F)cc2)C(COc2ccc3c(c2)OCO3)C1 (stereo not shown) [compound 1] ?
395

What does the record list as Ki for c1ccc([C@@H]2CCNC[C@H]2COc2ccc3c(c2)OCO3)cc1 [compound 15, desfluoroparoxetine] ?
0.557

What does the record list as Ki for O=C(Cc1ccc(Br)cc1)N1CCC(c2ccc(F)cc2)C(COc2ccc3c(c2)OCO3)C1 (stereo not shown) [compound 6] ?
3820

What does the record list as Ki for CCCN1CCC(c2ccc(F)cc2)C(COc2ccc3c(c2)OCO3)C1 (stereo not shown) [compound 2] ?
98

---

Target: hSERT WT (Homo sapiens, UniProt P31645)
Sequence (P31645 whole entry): as the sequence (P31645 whole entry) above
Format: cell-based
Conditions: read-out: Ki (nM) 5-HT Transport WT
Assay metric: Ki (nM)
Hi! Could you send only the number? It should be in nM, unit omitted.

What does the record list as Ki for Brc1ccc([C@@H]2CCNC[C@H]2COc2ccc3c(c2)OCO3)cc1 ?
2.3
